# targetUnderTest: P2rx2 (rat); note: test concentration or dose not given here
# protocolText: reporter assay of Huesken 2005
# settings: siRNA
Oligonucleotides are written 5' to 3', each unit as a sugar letter and its base; * is a phosphorothioate linkage, no mark a phosphodiester; rarer units and linkages stand in square brackets, end groups in braces. Plain capitals give the bases only. d = 2'-deoxy (DNA); r = 2'-OH (RNA)
Please respond with reported normalised inhibition (eCFP-eYFP dual reporter) for every item in the list.
Give the value, in units of %, as a plain number.

Query: For the record sense rUrCrUrCrArUrCrCrUrGrCrUrUrUrArCrUrUrCdTdT / antisense rGrArArGrUrArArArGrCrArGrGrArUrGrArGrAdAdG , what value of normalised inhibition (eCFP-eYFP dual reporter) is listed for P2rx2 (rat)?
Response: 61.3

Query: Similarly, sense rUrCrArUrCrArArGrArArCrArGrCrArUrCrCrAdTdT / antisense rUrGrGrArUrGrCrUrGrUrUrCrUrUrGrArUrGrAdGdG ?
Response: 53.7

Query: Similarly, sense rCrUrCrUrGrArCrUrGrArGrCrArGrGrUrGrGrUdTdT / antisense rArCrCrArCrCrUrGrCrUrCrArGrUrCrArGrArGdCdA ?
Response: 46.8

Query: Similarly, sense rCrArCrUrArCrUrCrCrCrArGrGrArUrCrArGrCdTdT / antisense rGrCrUrGrArUrCrCrUrGrGrGrArGrUrArGrUrGdAdC ?
Response: 46.4
